target: Metabotropic glutamate receptor 8 (Rattus norvegicus) (UniProt P70579); test: mGluR8 Gi/Go-coupled signaling modulation – cell-based, rat, thallium flux, HTS, primary screen (AID 488969); details: HEK293 rat mGluR8, GIRK thallium flux, FluoZin2; at 10 µM; stronger effect = higher value; submaximal glutamate (EC20) added with thallium
Sequence (P70579 whole entry, looked up): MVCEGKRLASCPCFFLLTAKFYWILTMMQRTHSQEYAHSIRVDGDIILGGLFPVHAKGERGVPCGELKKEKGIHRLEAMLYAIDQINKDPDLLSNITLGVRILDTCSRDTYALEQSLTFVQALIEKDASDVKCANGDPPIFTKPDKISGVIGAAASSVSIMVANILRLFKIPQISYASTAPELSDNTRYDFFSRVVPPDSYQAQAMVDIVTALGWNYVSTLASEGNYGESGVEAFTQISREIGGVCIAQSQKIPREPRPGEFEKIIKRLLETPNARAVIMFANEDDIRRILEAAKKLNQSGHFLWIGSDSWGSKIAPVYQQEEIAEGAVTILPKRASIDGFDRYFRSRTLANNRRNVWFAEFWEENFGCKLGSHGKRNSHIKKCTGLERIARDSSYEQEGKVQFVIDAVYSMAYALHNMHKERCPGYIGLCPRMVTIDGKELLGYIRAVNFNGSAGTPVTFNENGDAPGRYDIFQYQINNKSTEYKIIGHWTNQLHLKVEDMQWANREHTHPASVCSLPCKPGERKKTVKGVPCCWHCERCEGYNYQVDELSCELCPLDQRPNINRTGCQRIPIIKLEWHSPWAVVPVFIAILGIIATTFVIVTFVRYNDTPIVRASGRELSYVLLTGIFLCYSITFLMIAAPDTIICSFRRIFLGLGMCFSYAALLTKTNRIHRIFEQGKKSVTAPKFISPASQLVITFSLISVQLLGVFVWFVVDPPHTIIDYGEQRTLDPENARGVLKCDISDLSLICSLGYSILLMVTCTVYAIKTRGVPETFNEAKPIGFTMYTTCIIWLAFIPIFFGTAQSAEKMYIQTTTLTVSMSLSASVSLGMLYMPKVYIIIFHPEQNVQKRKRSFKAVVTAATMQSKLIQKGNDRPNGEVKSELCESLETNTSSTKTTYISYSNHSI
Over roughly 110,000 compounds, “z-score” has its median near -0.1; the highest 2% begin near 2. What follows is part of a selection rich in the highest values, with near analogues and random picks from the rest.
Values of z-score greater than or equal to -0.1 map to satisfied; values below map to not satisfied.

>>> assigned_label("O=C(CN1C(=O)/C(=C\\c2cccc(F)c2)Oc2ccccc21)N1CCN(c2ccccn2)CC1")
"satisfied"
>>> assigned_label("c1nc(N2CCC3(CC2)OCCO3)c2c3c(sc2n1)CCCC3")
"not satisfied"
>>> assigned_label("CCn1c(=S)[nH]c2cc(C(=O)OC)ccc2c1=O")
"satisfied"
>>> assigned_label("Nc1nnc(-c2ccccc2)s1")
"not satisfied"
>>> assigned_label("O=C(Cc1ccc(Cl)cc1)Nc1cccc(S(=O)(=O)Nc2ccccc2F)c1")
"satisfied"
>>> assigned_label("Nc1ccccc1NC(=O)c1ccccc1N")
"satisfied"

input: Reported z-score at or above -0.1? "Cc1ccc(C)c(NC(=S)NNC(=O)c2csc3c2CCCC3)c1"
output: satisfied

input: # repeat for "O=C(CN1C(=O)c2ccccc2C1=O)N1CCN(c2ccccn2)CC1"
output: not satisfied

input: # repeat for "O=C(CNc1n[nH]c(=O)[nH]c1=O)N/N=C/c1cccnc1"
output: not satisfied

====

target: Metabotropic glutamate receptor 8 (Rattus norvegicus) (UniProt P70579); test: mGluR8 Gi/Go-coupled signaling modulation – cell-based, rat, thallium flux, HTS, primary screen (AID 488969); conditions: HEK293 rat mGluR8, GIRK (G protein-gated inwardly rectifying potassium channel) thallium flux, FluoZin2; at 10 µM; stronger effect = higher value; submaximal glutamate (EC20) added with thallium
Over roughly 110,000 compounds, “z-score” has its median near -0.1; the highest 2% begin near 2. For the sample, the highest values were picked, then their nearest neighbours and some compounds at random.
Field: z-score. Provide a value for each of the molecules that follow.
One number for each entry.

Here is how some molecules turned out for z-score.
>>> observed_result("O=C(CSCC(=O)N1CCOCC1)Nc1nc(-c2ccc3c(c2)OCO3)cs1")
2
>>> observed_result("COc1cc2c(cc1NC(=O)Nc1ccccc1)oc1ccccc12")
-0.0976
>>> observed_result("CCOC(=O)N1CCN(C(=O)CSCC(=O)Nc2nc(-c3ccc4c(c3)OCO4)cs2)CC1")
-0.296

Provide the reported z-score of each entry below, same order.
1. O=C(CSc1nnc2ccccn12)Nc1nsc(-c2ccccc2)n1
2. Cc1c2ccccc2nc2c(F)c(NCCO)c(F)c(F)c12
3. Cc1cccc(OCC(=O)Nc2nc3ccc([N+](=O)[O-])cc3s2)c1
4. O=C(Nc1cccc(F)c1)NC1(C(=O)N2CCN3CCCC3C2)CCCCC1 (centres undefined)
5. O=C(CC(NC(=O)c1ccccc1)c1ccccc1)Nc1cccc2ccccc12 (centres undefined)
6. Cc1cccc(C)c1OCC(=O)Nc1oc(-c2ccccc2)c(-c2ccccc2)c1C#N

output:
1: 3.63; 2: -0.746; 3: 2.05; 4: 0.517; 5: -0.0391; 6: -0.376
